test system: Marburg virus (MARV); test: organism not typed; format: cell-based; settings: Vero, 72 h, read-out: Percent viral inhibition MARV
# binarize inhibition at 1 µM: threshold 50% inclusive, high side Y, low side N

# count of solved cases: 4
COMPOUND	ASSAYED_SYSTEM	ASSIGNED_LABEL
CC(=O)NCC1CCN(Cc2cc(Oc3ccc(N4CCN(CCO)CC4)nc3)nc(-c3cc(Cl)cc(Cl)c3)c2)CC1	Marburg virus (MARV)	N
CN1CCN(c2ncc(Oc3cc(CN4CCC(OC(C)(C)C(=O)O)CC4)cc(-c4cc(Cl)cc(Cl)c4)n3)cn2)CC1	Marburg virus (MARV)	Y
CNC(=O)NCC1CCN(Cc2cc(Oc3cnc(N4CCN(CCOC)CC4)nc3)nc(-c3cc(Cl)cc(Cl)c3)c2)CC1	Marburg virus (MARV)	N
CC(=O)NCC1CCN(Cc2cc(Oc3ccc(N)cn3)cc(-c3cc(Cl)cc(Cl)c3)c2)CC1	Marburg virus (MARV)	N

Answer whether inhibition at 1 µM of CS(=O)(=O)CCCN1CCN(c2ncc(Oc3cc(CN4CCC(CC(=O)O)CC4)cc(-c4cc(Cl)cc(Cl)c4)n3)cn2)CC1 is greater than or equal to 50%.
Y

Would you say CN1CCN(c2ncc(Oc3cc(CN4CCC(CP(C)(C)=O)CC4)cc(-c4cc(Cl)cc(Cl)c4)n3)cn2)CC1 shows inhibition at 1 µM at minimum 50%?
Y

I'd appreciate it if you could say whether CC(CC1CCN(Cc2cc(Oc3cnc(N4CCCN(C)CC4)cn3)nc(-c3cc(Cl)cc(Cl)c3)c2)CC1)C(=O)O (stereo not drawn) has inhibition at 1 µM at least equal to 50%.
Y

Is reported inhibition at 1 µM greater than or equal to 50% here: COC1CN(C)CCN(c2ncc(Oc3cc(CN4CCC(CC(=O)O)CC4)cc(-c4cc(Cl)cc(Cl)c4)n3)cn2)C1 (stereo not drawn)
Y

Tell me whether inhibition at 1 µM is at least 50% here: CC(=O)NCC1CCN(Cc2cc(Oc3ccc(N4CCNC(CO)C4)nc3)nc(-c3cc(Cl)cc(Cl)c3)c2)CC1 (stereo not drawn)
N

Does CC(=O)NCC1CCN(Cc2cc(Oc3cnc(N4CCN(C(C)CCS(C)(=O)=O)CC4)nc3)nc(-c3cc(F)cc(Cl)c3)c2)CC1 (stereo not drawn) have a reported inhibition at 1 µM of at least 50%?
N

State whether the measured inhibition at 1 µM reaches 50%, counting equality as reaching it, for CNC1CCN(c2ncc(Oc3cc(CN4CCC(CC(=O)O)CC4)cc(-c4cc(Cl)cc(Cl)c4)n3)cn2)C1 (stereo not drawn)
N

inhibition at 1 µM >= 50% for CS(=O)(=O)CC1CCN(Cc2cc(Oc3ccc(N4CCN(CCC(=O)O)CC4)nc3)nc(-c3cc(Cl)cc(Cl)c3)c2)CC1 ?
Y

Reported inhibition at 1 µM at or above 50%? CN1CCN(c2ncc(Oc3cc(CN4CCC(CC(=O)O)CC4)cc(-c4cc(Cl)cc(Cl)c4)c3)cn2)CC1
N
